- assay-system: T1, human ST2L, full length, on cells (human, UniProt Q01638 19-556)
- T1 sequence: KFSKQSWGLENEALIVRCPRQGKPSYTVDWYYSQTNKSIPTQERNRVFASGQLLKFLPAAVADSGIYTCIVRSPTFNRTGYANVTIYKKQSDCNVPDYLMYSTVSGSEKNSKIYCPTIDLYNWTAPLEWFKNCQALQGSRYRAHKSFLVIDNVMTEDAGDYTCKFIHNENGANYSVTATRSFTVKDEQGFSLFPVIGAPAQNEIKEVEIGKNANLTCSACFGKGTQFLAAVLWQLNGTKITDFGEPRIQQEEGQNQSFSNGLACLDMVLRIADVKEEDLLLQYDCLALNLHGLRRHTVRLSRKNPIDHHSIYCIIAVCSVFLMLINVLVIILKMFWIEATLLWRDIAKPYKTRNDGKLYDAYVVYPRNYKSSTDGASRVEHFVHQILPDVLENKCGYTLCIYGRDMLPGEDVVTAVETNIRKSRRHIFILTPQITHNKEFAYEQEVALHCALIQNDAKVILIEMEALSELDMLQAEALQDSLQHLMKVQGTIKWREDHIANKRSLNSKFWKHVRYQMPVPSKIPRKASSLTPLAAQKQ
- assay-summary: cell-based or functional assay
readout-label: RGA IC50 (mg/L)
Note: unit mg/L is implicit; provide only the numeric part.

>>> measurement("STLM213 (antibody, V domains shown, frameworks VH3-23 / Vk-L6) VH: EVQLLESGGGLVQPGGSLRLSCAASGFTFSFYDMIWVRQAPGKGLEWVSTIRGEGGDTNYADSVKGRFTISRDNSKNTLYLQMNSLRAEDTAVYYCARDPWSTEGSFFVLDYWGQGTLVTVSS VL: EIVLTQSPATLSLSPGERATLSCRASQSVDDDLAWYQQKPGQAPRLLIYDASNRATGIPARFSGSGSGTDFTLTISSLEPEDFAVYYCQQYIDAPLTFGQGTKVEIK")
0.49

Need RGA IC50, item STLM107 (antibody, V domains shown, frameworks VH3-23 / Vk-L6) VH: EVQLLESGGGLVQPGGSLRLSCAASGFTFSDYAMFWVRQAPGKGLEWVSAIEGEGGETNYADSVKGRFTISRDNSKNTLYLQMNSLRAEDTAVYYCARDPWSTEGSFFVLDYWGQGTLVTVSS VL: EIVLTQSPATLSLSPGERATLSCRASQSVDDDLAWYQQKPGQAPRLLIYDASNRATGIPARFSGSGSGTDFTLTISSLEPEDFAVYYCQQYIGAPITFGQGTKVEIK
1.1

Another binder to look at: STLM222 (antibody, V domains shown, frameworks VH3-23 / Vk-L6) VH: EVQLLESGGGLVQPGGSLRLSCAASGFTFSIYSMFWVRQAPGKGLEWVSDIGGEGGGTSYADSVKGRFTISRDNSKNTLYLQMNSLRAEDTAVYYCARDPWSTEGSFFVLDYWGQGTLVTVSS VL: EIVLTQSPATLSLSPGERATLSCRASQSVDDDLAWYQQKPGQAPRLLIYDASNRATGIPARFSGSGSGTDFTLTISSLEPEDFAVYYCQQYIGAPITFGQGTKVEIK
1.88
